Attribution: patent US9284283B2

Biological target: recombinant human IL17a (binding to its receptor IL17R) (Homo sapiens, UniProt Q16552)
Construct: 177-IR (IL17R/Fc)
Sequence (Q16552 20-155 limits assumed): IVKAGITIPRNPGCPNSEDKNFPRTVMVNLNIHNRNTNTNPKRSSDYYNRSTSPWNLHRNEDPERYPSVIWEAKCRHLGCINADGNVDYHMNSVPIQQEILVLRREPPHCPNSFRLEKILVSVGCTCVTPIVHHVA
Test: IL-17 competition ELISA I (IL17a coated, IL17R/Fc binding)
pIC50: −log10 of the molar value.
reportedEndpoint: pIC50

Reference set (5 entries):
O=C1CNC(=O)[C@@H](Cc2ccc(NC(=O)[C@H](Cc3ccccc3Cl)NC(=O)c3ccccc3Cl)cc2)NC(=O)CC2(CCCC2)CC(=O)NCCCCCN1
6.00 to 7.00
O=C1CCCC(=O)N[C@H](Cc2ccc(NC(=O)[C@H](Cc3ccccc3Cl)NC(=O)Cc3ccccc3)cc2)C(=O)NCC(=O)NCCCCCN1
5.00 to 6.00
O=C1CNC(=O)[C@@H](Cc2ccc(NC(=O)[C@H](Cc3ccccc3Cl)NC(=O)Cc3ccccc3)cc2)NC(=O)CC2(CCCCC2)CC(=O)NCCCCCN1
> 7.00
O=C1CC2(CCCC2)CC(=O)N[C@H](Cc2ccc(NC(=O)[C@H](Cc3ccccc3Cl)NC(=O)Cc3ccccc3)cc2)C(=O)NCCCCCCN1
6.00 to 7.00
C[C@H]1NC(=O)[C@@H](Cc2ccc(NC(=O)[C@@H](NC(=O)Cc3ccc(CO)cc3)C3CCCCC3)cc2)NC(=O)CC2(CCCC2)CC(=O)NCCCCCNC1=O
6.00 to 7.00

Query :: Any idea what pIC50 was measured for COC(=O)[C@@H]1CCCCNC(=O)CNC(=O)[C@@H](Cc2ccc(NC(=O)[C@H](Cc3ccccc3Cl)NC(C)=O)cc2)NC(=O)CC2(CCCC2)CC(=O)N1 ?
Result :: > 7.00

Query :: Quick one: O=C1CNC(=O)[C@@H](Cc2ccc(NC(=O)[C@H](Cc3ccc(Cl)cc3Cl)NC(=O)Cc3ccccc3)cc2)NC(=O)CC2(CCCC2)CC(=O)NCCCCCN1
Result :: > 7.00

Query :: Can you check O=C1CC2(CCCC2)CC(=O)N[C@H](Cc2ccc(NC(=O)[C@@H](NC(=O)Cc3ccccc3)C3CCCCC3)cc2)C(=O)NCCCCCCCN1 next?
Result :: 5.00 to 6.00

Query :: Queued: CN1CCNC(=O)CNC(=O)[C@@H](Cc2ccc(NC(=O)[C@H](Cc3ccccc3Cl)NC(=O)Cc3ccc(O)cc3)cc2)NC(=O)CC2(CCCC2)CC(=O)NCC1
Result :: > 7.00

Query :: One more compound: O=C1CNC(=O)[C@@H](Cc2ccc(NC(=O)[C@H](Cc3ccccc3Cl)NC(=O)c3ccc(CO)cc3)cc2)NC(=O)CC2(CCCC2)CC(=O)NCCCCCN1
Result :: 6.00 to 7.00

---

Kd: recorded values
Molecular target: IL17A (Homo sapiens, UniProt Q16552)
Sequence (Q16552 24-155): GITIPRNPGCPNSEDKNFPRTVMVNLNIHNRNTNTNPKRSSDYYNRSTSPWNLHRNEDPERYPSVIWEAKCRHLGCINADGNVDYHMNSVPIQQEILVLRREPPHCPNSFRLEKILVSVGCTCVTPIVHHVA
Assay: Surface Plasmon Resonance (SPR) analysis of compound interactions with IL17A
Settings: SPR binding to IL17A
Method: SPR analysis was carried out with a GE Healthcare (Piscataway, N.J.) Biacore X100 system. […] Five 2-fold or 3-fold serial dilutions of test compound were injected serially onto the chip. […] The rate of refractive index change (RU units/time) and the maximum extend of RU change was measured during the “on” phase of analyte injection, followed by measuring the rate during the “off” phase. […]

O=C1CCNC(=O)[C@@H](Cc2ccc(NC(=O)[C@H](Cc3ccccc3Cl)NC(=O)Cc3ccccc3)cc2)NC(=O)CC2(CCCC2)CC(=O)NCCCCN1
< 100 nM

Query :: Suppose we examine the compound O=C1CNC(=O)[C@@H](Cc2ccc(NC(=O)[C@H](Cc3ccccc3Cl)NC(=O)Cc3ccccc3)cc2)NC(=O)CC2(CCCC2)CC(=O)NCCCCN1 ; what Kd value has been reported?
Result :: < 100 nM

Query :: Subsequent entry: COC(=O)[C@@H]1Cc2ccc(cc2)NC(=O)CCCNC(=O)[C@@H](Cc2ccc(NC(=O)[C@H](Cc3ccccc3F)NC(=O)Cc3ccccc3)cc2)NC(=O)CC2(CCCC2)CC(=O)N1
Result :: 100 to 1000 nM

Query :: Can you handle O=C1CNC(=O)[C@@H](Cc2ccc(NC(=O)[C@@H](NC(=O)Cc3ccc(O)cc3)C3CCCCC3)cc2)NC(=O)CC2(CCCC2)CC(=O)NCCCCCN1 next?
Result :: < 100 nM

---

Recorded measurements of Kd, one per entry
target: IL17A (Homo sapiens, UniProt Q16552); assay: Surface Plasmon Resonance (SPR) analysis of compound interactions with IL17A; conditions: SPR binding to IL17A

Query :: Fill in the recorded Kd for this molecule, with IL17A (Homo sapiens, UniProt Q16552) as test system: COC(=O)[C@@H]1CCCCNC(=O)CCCNC(=O)[C@H](Cc2ccc(NC(=O)[C@H](Cc3ccccc3F)NC(=O)c3ccccc3)cc2)NC(=O)CC2(CCCC2)CC(=O)N1
Result :: 100 to 1000 nM

Query :: Next record, please: COC(=O)[C@@H]1CCCCNC(=O)CNC(=O)[C@@H](Cc2ccc(NC(=O)[C@H](Cc3ccccc3Cl)NC(=O)Cc3ccccc3)cc2)NC(=O)CC2(CCCC2)CC(=O)N1
Result :: < 100 nM

Query :: What do we get for O=C1CNC(=O)[C@@H](Cc2ccc(NC(=O)[C@H](Cc3ccc(O)cc3)NC(=O)Cc3ccc(O)cc3)cc2)NC(=O)CC2(CCCC2)CC(=O)NCCCCCN1 ?
Result :: < 100 nM

Query :: What would you report for O=C1CNC(=O)[C@@H](Cc2ccc(NC(=O)[C@H](Cc3ccc(Cl)cc3Cl)NC(=O)Cc3ccc(O)cc3)cc2)NC(=O)CC2(CCCC2)CC(=O)NCCCCCN1 ?
Result :: < 100 nM

Query :: # repeat for O=C1CNC(=O)[C@@H](Cc2ccc(NC(=O)[C@H](Cc3ccccc3Cl)NC(=O)c3ccc(F)cc3)cc2)NC(=O)CC2(CCCC2)CC(=O)NCCCCCN1
Result :: < 100 nM

Query :: Same question for O=C1CNC(=O)[C@@H](Cc2ccc(NC(=O)[C@H](Cc3ccccc3Cl)NC(=O)Cc3ccccc3O)cc2)NC(=O)CC2(CCCC2)CC(=O)NCCCCCN1 please.
Result :: < 100 nM

Query :: Now consider O=C1CNC(=O)[C@@H](Cc2ccc(NC(=O)[C@H](Cc3ccccc3Cl)NC(=O)Cc3ccccc3)cc2)NC(=O)CC2(CCCC2)CC(=O)N(CCO)CCCCCN1 and answer again.
Result :: < 100 nM

Query :: Next entry: COC(=O)[C@H]1CCCCNC(=O)CCCNC(=O)[C@H](Cc2ccc(NC(=O)[C@H](Cc3ccccc3)NC(=O)Cc3ccccc3)cc2)NC(=O)CC2(CCCC2)CC(=O)N1
Result :: 1000 to 10000 nM

Query :: Another: COC(=O)[C@H]1CCCCNC(=O)CNC(=O)[C@@H](Cc2ccc(NC(=O)[C@H](Cc3ccccc3Cl)NC(=O)Cc3ccccc3)cc2)NC(=O)CC2(CCCC2)CC(=O)N1
Result :: < 100 nM

---

target: biotinylated human IL-17 (binding to IL17R/Fc) (Homo sapiens); construct: 177-IR (IL17R/Fc); assay: IL-17 competition ELISA II (captured IL17R/Fc, biotinylated IL-17)
reportedEndpoint: IC50

Previously resolved entries follow.
C[C@H]1NC(=O)[C@@H](CCNC(=O)[C@H](Cc2ccccc2Cl)NC(=O)C(F)(F)c2ccccc2)NC(=O)CC2(CCCC2)CC(=O)NCCCCCNC1=O [Compound 610]
> 10000 nM
O=C1CC2(CCCC2)CC(=O)N[C@H](Cc2ccc(NC(=O)[C@H](Cc3ccccc3Cl)NC(=O)Cc3ccc(CO)cc3)cc2)C(=O)NCCCCCCCN1 [Compound 356]
< 100 nM
O=C(Cc1ccccc1)N[C@@H](Cc1ccccc1Cl)C(=O)Nc1ccc(C[C@H]2NC(=O)CC3(CCCC3)CC(=O)OCCNCCNC(=O)[C@@H](Cc3ccccc3)NC2=O)cc1 [Compound 444]
< 100 nM
CCC(F)(F)C(=O)NC(C(=O)Nc1ccc(CC2NC(=O)CC3(CCCC3)CC(=O)OCCCCCN(C)C(=O)CNC2=O)cc1)C1CCCCC1 (centres unmarked) [Compound 680]
100 to 1000 nM

Query :: Find the recorded IC50 belonging to O=C1CC2(CCCC2)CC(=O)N[C@H](Cc2ccc(NC(=O)[C@@H](NC(=O)c3cccnc3)C3CCCCC3)cc2)C(=O)NCC#CCCCCCN1 [Compound 458] and report it.
Result :: 1000 to 10000 nM

Query :: Would you kindly repeat that for C[C@H]1NC(=O)[C@@H](Cc2ccc(NC(=O)[C@H](Cc3ccccc3Cl)NC(=O)Cc3ccc(N(C)C)cc3)cc2)NC(=O)CC2(CCCC2)CC(=O)N(C)CCN(C)CCN(C)C1=O [Compound 562] ?
Result :: < 100 nM
